The reported numbers originate from patent US6653127B1.

- target-under-test: T1, 5A/5B (P8P8') substrate DTEDVVCC*SMSYTWTG-K
- T1 chain: DTEDVVCCSMYTWTGK
reported-endpoint: Km (µM)
Give bare numbers, in µM.

As a guide, the following entries are already answered.
{"columns": ["protein", "Km, µM"],
 "data": [
  ["His-NS31-181 + NS4A Peptide (non-covalent complex) (protein) chain 1: MAPITAYSQQTRGLLGCIITSLTGRDKNQVEGEVQVVSTATQSFLATCVNGVCWTVYHGAGSKTLAGPKGPITQMYTNVDQDLVGWQAPPGARSLTPCTCGSSDLYLVTRHADVIPVRRRGDSRGSLLSPRPVSYLKGSSGGPLLCPSGHAVGIFRAAVCTRGVAKAVDFVPVESMETTMR chain 2: KKGSVVIVGRIVLSGKPAIIPKK", 80],
  ["His-NS4A21-32-GSGS-NS33-181/I18K (protein) MGSSHHHHHHSSGLVPRGSHMGSVVIVGRIILSGSGSITAYSQQTRGLLGCIKTSLTGRDKNQVEGEVQVVSTATQSFLATCVNGVCWTVYHGAGSKTLAGPKGPITQMYTNVDQDLVGWQAPPGARSLTPCTCGSSDLYLVTRHADVIPVRRRGDSRGSLLSPRPVSYLKGSSGGPLLCPSGHAVGIFRAAVCTRGVAKAVDFVPVESMETTMRS", 22],
  ["His-NS4A21-32-GSGS-NS33-181/I17K (protein) MGSSHHHHHHSSGLVPRGSHMGSVVIVGRIILSGSGSITAYSQQTRGLLGCKITSLTGRDKNQVEGEVQVVSTATQSFLATCVNGVCWTVYHGAGSKTLAGPKGPITQMYTNVDQDLVGWQAPPGARSLTPCTCGSSDLYLVTRHADVIPVRRRGDSRGSLLSPRPVSYLKGSSGGPLLCPSGHAVGIFRAAVCTRGVAKAVDFVPVESMETTMRS", 20]
]}

INPUT: I have this protein here, His-NS4A21-32-GSGS-NS33-181 (protein) MGSSHHHHHHSSGLVPRGSHMGSVVIVGRIILSGSGSITAYSQQTRGLLGCIITSLTGRDKNQVEGEVQVVSTATQSFLATCVNGVCWTVYHGAGSKTLAGPKGPITQMYTNVDQDLVGWQAPPGARSLTPCTCGSSDLYLVTRHADVIPVRRRGDSRGSLLSPRPVSYLKGSSGGPLLCPSGHAVGIFRAAVCTRGVAKAVDFVPVESMETTMRS , and I need its recorded Km.
OUTPUT: 19
